kon listing for selected binders.
Target: purified rhesus CD45 ectodomain (rhesus macaque)
Sequence (chain, as listed by the source limits assumed, form in doubt): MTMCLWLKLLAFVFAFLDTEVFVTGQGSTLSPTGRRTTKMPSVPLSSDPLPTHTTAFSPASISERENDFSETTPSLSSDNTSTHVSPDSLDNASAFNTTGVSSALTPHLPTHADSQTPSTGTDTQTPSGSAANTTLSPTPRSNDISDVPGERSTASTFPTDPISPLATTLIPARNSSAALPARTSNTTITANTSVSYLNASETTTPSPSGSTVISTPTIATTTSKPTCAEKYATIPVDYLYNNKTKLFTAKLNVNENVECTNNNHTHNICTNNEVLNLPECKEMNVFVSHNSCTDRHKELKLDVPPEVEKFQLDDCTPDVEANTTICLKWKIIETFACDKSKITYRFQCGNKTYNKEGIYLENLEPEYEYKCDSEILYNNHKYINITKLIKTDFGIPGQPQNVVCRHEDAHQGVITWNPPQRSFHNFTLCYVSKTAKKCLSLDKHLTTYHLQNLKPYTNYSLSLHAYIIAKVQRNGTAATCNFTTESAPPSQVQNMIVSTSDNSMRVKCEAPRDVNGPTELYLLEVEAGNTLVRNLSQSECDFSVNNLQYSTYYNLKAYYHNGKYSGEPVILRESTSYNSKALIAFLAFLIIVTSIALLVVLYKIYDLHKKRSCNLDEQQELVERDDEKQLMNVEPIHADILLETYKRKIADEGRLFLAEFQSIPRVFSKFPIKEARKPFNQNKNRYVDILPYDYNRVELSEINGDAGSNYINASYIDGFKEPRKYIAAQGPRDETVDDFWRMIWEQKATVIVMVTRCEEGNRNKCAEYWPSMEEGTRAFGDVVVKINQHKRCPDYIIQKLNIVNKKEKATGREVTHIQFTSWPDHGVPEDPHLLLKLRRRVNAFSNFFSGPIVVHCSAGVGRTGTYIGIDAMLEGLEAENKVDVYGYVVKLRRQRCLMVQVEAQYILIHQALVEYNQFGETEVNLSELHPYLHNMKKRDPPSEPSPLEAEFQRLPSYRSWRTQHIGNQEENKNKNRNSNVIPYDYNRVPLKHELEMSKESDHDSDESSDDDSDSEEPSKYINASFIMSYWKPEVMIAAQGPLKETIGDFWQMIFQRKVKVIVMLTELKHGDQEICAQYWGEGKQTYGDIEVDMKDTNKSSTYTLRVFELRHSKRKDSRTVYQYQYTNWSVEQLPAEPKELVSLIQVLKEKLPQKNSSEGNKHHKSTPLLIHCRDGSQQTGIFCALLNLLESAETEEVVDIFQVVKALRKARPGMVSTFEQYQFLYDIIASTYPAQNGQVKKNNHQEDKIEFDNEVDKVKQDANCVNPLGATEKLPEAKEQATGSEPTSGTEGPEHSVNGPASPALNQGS
Test description: BLI (Octet Red96), IgG on anti-human Fc sensor, 50 nM CD45 ectodomain, 1:1 fit
Report as a plain number; the unit M⁻¹ s⁻¹ is understood.

// returns reported kon for input Antibody 2 (Ab2) (antibody, V domains shown) VH: EVQLVESGGGLVQPGGSLRLSCAASGFTFEAYSMNWVRQAPGKGLEWVSYISLSGATIHYADSVKGRFTISRDNAKNSLYLQMNSLRAEDTAVYYCARGGQYYYDSSDYGEVAFDIWGQGTMVTVSS VL: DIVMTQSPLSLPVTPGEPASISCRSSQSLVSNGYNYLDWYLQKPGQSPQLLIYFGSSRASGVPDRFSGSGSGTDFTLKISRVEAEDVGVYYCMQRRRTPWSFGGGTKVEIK
135000

// returns reported kon for input Antibody 3 (Ab3) (antibody, V domains shown) VH: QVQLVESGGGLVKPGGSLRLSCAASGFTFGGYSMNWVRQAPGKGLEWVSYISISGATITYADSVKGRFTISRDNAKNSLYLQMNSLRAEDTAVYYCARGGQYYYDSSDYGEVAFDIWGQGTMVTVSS VL: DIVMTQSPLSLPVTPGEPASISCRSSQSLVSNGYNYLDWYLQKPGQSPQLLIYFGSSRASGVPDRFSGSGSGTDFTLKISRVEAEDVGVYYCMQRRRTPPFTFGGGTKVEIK
135000

// returns reported kon for input Antibody 5 (Ab5) (antibody, V domains shown) VH: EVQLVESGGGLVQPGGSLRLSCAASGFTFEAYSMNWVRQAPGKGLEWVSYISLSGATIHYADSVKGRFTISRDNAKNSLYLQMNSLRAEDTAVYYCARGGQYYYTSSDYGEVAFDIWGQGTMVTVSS VL: DIVMTQSPLSLPVTPGEPASISCRSSQSLVSSGYNYLDWYLQKPGQSPQLLIYFGSSRASGVPDRFSGSGSGTDFTLKISRVEAEDVGVYYCMQRRRTPWSFGGGTKVEIK
113000

FYI, the data here is from patent US20220267441A1.
